Assay: in vitro
Settings: human, Percent Cytotoxicity (Neutral Red), Caco-2; SARS2-740 (USA-WA1/2020 set); 0.1 µM
OBSERVED_PROPERTY: cytotoxicity at 0.1 µM (%)
Answers are plain numbers, in %.

Find the measured cytotoxicity at 0.1 µM of "COC(=O)/C=C/C(=O)NNC(=O)CCc1ccccc1C(=O)N[C@H](C)c1cccc2ccccc12" and report it.
0

----------
Experiment: Metabolic stability in mouse liver microsomes
Settings: CD-1, mouse
I'd appreciate it if you could supply microsomal CLint values for the items below.
One number for each entry, in µL/min/mg.

// solved cases for microsomal CLint follow
C[C@@H](NC(=O)c1ccccc1CCC(=O)NNC(=O)CCl)c1cccc2ccccc12 1330
Cc1ccccc1C(=O)N[C@H](C)c1cccc2ccccc12 435

Now consider the entry below.
Find the measured microsomal CLint of "COC(=O)/C=C/C(=O)NNC(=O)CCc1ccccc1C(=O)N[C@H](C)c1cccc2ccccc12" and report it.
540
